Origin of the recorded values: paper doi:10.1101/862326

# subject of test: T1, TRBP2-dsRBD1 (UniProt Q15633 1-105)
# T1 sequence: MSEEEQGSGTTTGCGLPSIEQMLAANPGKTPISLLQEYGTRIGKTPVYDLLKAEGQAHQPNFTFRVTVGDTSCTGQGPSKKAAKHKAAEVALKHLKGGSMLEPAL
# assay comment: ITC
property label: Kd
Could you give the number and then its unit, please?

Request the reported Kd associated with miR-16-1 (dsRNA) RNA 1: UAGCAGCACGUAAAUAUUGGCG RNA 2: CCAGUAUUAACUGUGCUGCUGAA 890 nM
